molecular target: Myosin light chain kinase, smooth muscle (Gallus gallus); experiment: Inhibition of calmodulin-independent form of Myosin light chain kinase from chicken gizzard at 100 uM; details: 300 uM, in the assay text read “at 300 uM” for “at 100 uM”
Residues, ends and D or L forms follow the SMILES beside them. *: point of attachment. NHCH2(2-pyridyl) = c1ccc(CN*)nc1; OBn = c1ccc(CO*)cc1
inhibition for assorted compounds
The reply must contain the numeric value and, after it, the unit.

Solved cases below.
compound	result
CC(C)[C@H](NC(=O)[C@H](CC(N)=O)NC(=O)[C@@H](N)CO)C(=O)N[C@@H](Cc1ccccc1)C(=O)N[C@@H](C)C(=O)NCc1ccccn1 (H-SNVFA-{NHCH2(2-pyridyl)})	5%
CC(C)[C@H](NC(=O)[C@@H](/C=C/[C@@H](N)CO)CC(N)=O)C(=O)N[C@@H](Cc1ccccc1)C(=O)N[C@@H](C)C(=O)NCc1ccccc1	0%
CC(C)[C@H](NC[C@H](CC(N)=O)NC(=O)[C@@H](N)CO)C(=O)N[C@@H](Cc1ccccc1)C(=O)N[C@@H](C)C(=O)OCc1ccccc1	33%
CC(C)[C@H](NC(=O)[C@H](CC(N)=O)NC[C@@H](N)CO)C(=O)N[C@@H](Cc1ccccc1)C(=O)N[C@@H](C)C(=O)NCc1ccccc1	0%
CC(C)[C@H](NC(=O)[C@H](CC(N)=O)NC(=O)[C@@H](N)CO)C(=O)N[C@@H](Cc1ccccc1)C(=O)N[C@@H](C)C(=O)O (H-SNVFA-OH)	0%

Query :: Given the entry C[C@H](NC(=O)[C@H](Cc1ccccc1)NC(=O)CNC(=O)[C@H](CC(N)=O)NC(=O)[C@@H](N)CO)C(=O)OCc1ccccc1 (H-SNGFA-OBn) , what inhibition was observed with Myosin light chain kinase, smooth muscle (Gallus gallus)?
Result :: 17%

* * *

molecular target: Myosin light chain kinase, smooth muscle (Gallus gallus, UniProt P11799); experiment: Inhibition of native form of chicken MLCK (myosin light chain kinase)
Sequence (P11799 whole entry): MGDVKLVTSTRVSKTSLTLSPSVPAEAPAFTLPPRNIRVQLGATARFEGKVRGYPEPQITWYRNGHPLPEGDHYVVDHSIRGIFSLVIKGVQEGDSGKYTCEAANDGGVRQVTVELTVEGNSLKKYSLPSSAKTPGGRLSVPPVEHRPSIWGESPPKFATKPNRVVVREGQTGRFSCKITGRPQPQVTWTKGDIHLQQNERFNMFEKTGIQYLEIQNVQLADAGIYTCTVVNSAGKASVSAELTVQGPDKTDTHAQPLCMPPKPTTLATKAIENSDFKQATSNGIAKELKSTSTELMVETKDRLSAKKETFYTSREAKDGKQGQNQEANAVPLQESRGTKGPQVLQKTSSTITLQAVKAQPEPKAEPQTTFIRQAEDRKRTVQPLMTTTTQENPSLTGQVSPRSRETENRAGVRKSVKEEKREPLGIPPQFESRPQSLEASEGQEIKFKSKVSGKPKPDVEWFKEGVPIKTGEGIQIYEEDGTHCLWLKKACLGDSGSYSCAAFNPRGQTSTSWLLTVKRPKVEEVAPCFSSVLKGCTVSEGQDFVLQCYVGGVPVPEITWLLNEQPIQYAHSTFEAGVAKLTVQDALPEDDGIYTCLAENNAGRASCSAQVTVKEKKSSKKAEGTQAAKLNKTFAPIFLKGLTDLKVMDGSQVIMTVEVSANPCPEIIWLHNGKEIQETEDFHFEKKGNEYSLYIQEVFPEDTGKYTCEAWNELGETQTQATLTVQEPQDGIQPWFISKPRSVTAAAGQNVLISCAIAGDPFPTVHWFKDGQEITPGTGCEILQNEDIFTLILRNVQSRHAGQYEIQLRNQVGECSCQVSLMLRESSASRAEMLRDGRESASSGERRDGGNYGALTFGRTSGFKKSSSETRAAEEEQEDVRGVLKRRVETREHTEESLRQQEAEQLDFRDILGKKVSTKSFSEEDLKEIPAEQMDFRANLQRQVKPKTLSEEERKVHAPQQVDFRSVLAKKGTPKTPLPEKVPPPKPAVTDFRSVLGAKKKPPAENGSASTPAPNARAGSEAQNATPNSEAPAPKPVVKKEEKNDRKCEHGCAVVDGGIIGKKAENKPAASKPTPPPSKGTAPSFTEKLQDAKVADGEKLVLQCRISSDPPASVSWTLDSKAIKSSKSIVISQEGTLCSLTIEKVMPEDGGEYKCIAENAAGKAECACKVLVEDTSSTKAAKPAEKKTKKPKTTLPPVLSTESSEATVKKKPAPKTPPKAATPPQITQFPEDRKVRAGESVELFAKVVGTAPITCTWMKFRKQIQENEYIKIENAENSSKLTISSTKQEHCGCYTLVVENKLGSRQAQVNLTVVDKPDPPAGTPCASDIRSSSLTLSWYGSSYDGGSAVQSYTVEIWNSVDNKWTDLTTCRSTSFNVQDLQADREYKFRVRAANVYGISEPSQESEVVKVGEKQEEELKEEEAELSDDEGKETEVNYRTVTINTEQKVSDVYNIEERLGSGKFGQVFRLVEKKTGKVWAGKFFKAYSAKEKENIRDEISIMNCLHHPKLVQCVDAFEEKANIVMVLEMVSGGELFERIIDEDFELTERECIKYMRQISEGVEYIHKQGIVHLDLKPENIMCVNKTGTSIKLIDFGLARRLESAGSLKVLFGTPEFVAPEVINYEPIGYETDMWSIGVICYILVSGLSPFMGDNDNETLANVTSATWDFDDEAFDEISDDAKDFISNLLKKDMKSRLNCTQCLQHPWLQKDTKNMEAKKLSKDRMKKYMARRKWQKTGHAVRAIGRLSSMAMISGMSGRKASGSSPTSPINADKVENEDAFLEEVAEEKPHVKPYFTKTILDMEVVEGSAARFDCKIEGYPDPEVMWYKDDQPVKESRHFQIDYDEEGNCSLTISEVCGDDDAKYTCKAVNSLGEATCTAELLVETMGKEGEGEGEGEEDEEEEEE
Non-standard residues stand in square brackets, D forms with d. Residues, ends and D or L forms follow the SMILES beside them. ξ: configuration not given here. *: point of attachment. Tyr(3,5-I2) = N[C@@H](Cc1cc(I)c(O)c(I)c1)C(=O)O; 1Nal = N[C@@H](Cc1cccc2ccccc12)C(=O)O; Cha = N[C@@H](CC1CCCCC1)C(=O)O; ξαMeS = CC(N)(CO)C(=O)O; OBn = c1ccc(CO*)cc1
The following compounds are shown together with reported pIC50 values.
Just the number, please; pIC50 means minus log10 of the concentration in mol/L.

Known results for compounds:
compound	pIC50
CC(C)[C@H](NC(=O)[C@H](CC(N)=O)NC(=O)[C@H](CO)NC(=O)[C@@H](NC(=O)[C@H](C)NC(=O)[C@@H](N)CCCNC(=N)N)[C@@H](C)O)C(=O)N[C@@H](Cc1ccccc1)C(=O)N[C@@H](C)C(=O)OCc1ccccc1 (H-RATSNVFA-OBn)	4.42
CC(C)[C@H](NC(=O)[C@H](CC(N)=O)NC(=O)[C@@H](N)CO)C(=O)N[C@@H](Cc1cc(I)c(O)c(I)c1)C(=O)N[C@@H](C)C(=O)OCc1ccccc1 (H-SNV[Tyr(3,5-I2)]A-OBn)	5.15
CC(C)[C@H](NC(=O)[C@H](CC(N)=O)NC(=O)[C@H](CO)NC(=O)[C@@H](N)[C@@H](C)O)C(=O)N[C@@H](Cc1ccccc1)C(=O)N[C@@H](C)C(=O)OCc1ccccc1 (H-TSNVFA-OBn)	4.82
CC(C)[C@H](NC(=O)[C@H](CC(N)=O)NC(=O)C(C)(N)CO)C(=O)N[C@@H](Cc1ccccc1)C(=O)N[C@@H](C)C(=O)OCc1ccccc1 (stereo not given in full) (H-[ξαMeS]NVFA-OBn)	3.46
CC(C)[C@H](NC(=O)[C@H](CC(N)=O)NC(=O)[C@@H](N)CO)C(=O)N[C@@H](Cc1ccccc1)C(=O)N[C@@H](CO)C(=O)OCc1ccccc1 (H-SNVFS-OBn)	4.37

Query :: Give recorded pIC50 with Myosin light chain kinase, smooth muscle (Gallus gallus, UniProt P11799) for the following compound: CC(C)[C@H](NC(=O)CNC(=O)[C@@H](N)CO)C(=O)N[C@@H](Cc1ccccc1)C(=O)N[C@@H](C)C(=O)OCc1ccccc1 (H-SGVFA-OBn)
Result :: 3.35

Query :: So what pIC50 did CC(C)[C@H](NC(=O)[C@H](CC(N)=O)NC(=O)[C@@H](N)CO)C(=O)N[C@@H](CC1CCCCC1)C(=O)N[C@@H](C)C(=O)OCc1ccccc1 (H-SNV[Cha]A-OBn) get with Myosin light chain kinase, smooth muscle (Gallus gallus, UniProt P11799)?
Result :: 4.92

Query :: Requested read-out pIC50, target or system Myosin light chain kinase, smooth muscle (Gallus gallus, UniProt P11799), entry CC(C)[C@H](NC(=O)[C@H](CC(N)=O)NC(=O)[C@@H](N)CO)C(=O)N[C@@H](Cc1cccc2ccccc12)C(=O)N[C@@H](C)C(=O)OCc1ccccc1 (H-SNV[1Nal]A-OBn)
Result :: 5.70

Query :: So what pIC50 did CC(C)[C@H](NC(=O)[C@H](CC(N)=O)NC(=O)[C@@H](N)CO)C(=O)N[C@@H](Cc1c[nH]c2ccccc12)C(=O)N[C@@H](C)C(=O)OCc1ccccc1 (H-SNVWA-OBn) get with Myosin light chain kinase, smooth muscle (Gallus gallus, UniProt P11799)?
Result :: 5.22

Query :: Lab request: please report pIC50 under test system Myosin light chain kinase, smooth muscle (Gallus gallus, UniProt P11799) for CC(C)[C@H](NC(=O)[C@H](CC(N)=O)NC(=O)[C@@H](N)CO)C(=O)N[C@@H](Cc1ccc(O)cc1)C(=O)N[C@@H](C)C(=O)OCc1ccccc1 (H-SNVYA-OBn)
Result :: 4.35

Attribution: ChEMBL document CHEMBL1124728
